# Tested on: MALME-3M melanoma
# procedure.summary: NCI tumour cell line growth inhibition, 48 h
measured.parameter: TGI

* COC(=O)C1=C(OC(=O)c2ccccc2)C(C(=O)OC)[C@@]2(O)[C@@H](C(=O)OC)[C@H](C)C[C@@H]1[C@@H]2C(=O)OC (some centres undefined) | > 100 µM
* COC(=O)C1=COC(OC2OC(CO)C(O)C(O)C2O)C2C3CN4CCc5c([nH]c6ccccc56)C4(CC12)O3 (centres undefined) | > 100 µM
* CC(C)CC(=O)NC(C(=O)NC(C(=O)NC(CC(C)C)C(O)CC(=O)NC(C)C(=O)NC(CC(C)C)C(O)CC(=O)O)C(C)C)C(C)C (centres undefined) | > 100 µM
* O=[N+]([O-])c1ccc(Oc2c(Cl)cc(S(=O)(=O)/N=C(\NO)Nc3ccc(Cl)cc3)cc2Cl)c(Cl)c1 | 28.3 µM

---

We begin with a simple list: items and their reported TGI.
# Tested on: HT29 colon
# procedure.summary: NCI tumour cell line growth inhibition, 48 h
measured.parameter: TGI

* CCOC(=O)Cn1c(=O)c2nc(SC)sc2n(-c2ccccc2)c1=S | > 100 µM
* CCCCCCCCC/C(=N\NC(=O)c1ccncc1)c1ccc(O)c(O)c1O | 32.9 µM
* O=[N+]([O-])c1ccc(C2CC(c3ccccc3)=Nc3ccccc3S2)cc1 (centres undefined) | > 100 µM
* COC(=O)C(C)(C)[C@@H]1OC(=O)N(S(=O)(=O)c2c(C)cc(C)cc2C)[C@H]1C(C)C | > 100 µM
* NC(=O)/C(=N\NC(=O)C[n+]1ccccc1)C1NC(=O)NC1=O (centres undefined) | > 100 µM
* N#Cc1ccc(CSC2=C(c3ccc(Cl)cc3)S/C(=C3\SC(SCc4ccc(C#N)cc4)=C(c4ccc(Cl)cc4)S3)S2)cc1 | > 100 µM
* C[C@]12CC[C@@H]3c4cc(O)c(O)cc4CC[C@H]3[C@@H]1CC[C@@H]2O | 61.3 µM
* O=C(c1nc2ccccc2[nH]c1=O)C(O)c1ccco1 (centres undefined) | > 100 µM
* O=[N+]([O-])c1ccc(Oc2c(Cl)cc(S(=O)(=O)/N=C(\NO)Nc3ccc(Cl)cc3)cc2Cl)c(Cl)c1 | 30.5 µM

---

# Test system: SK-MEL-28 melanoma
# procedure.summary: NCI tumour cell line growth inhibition, 48 h
measured.parameter: GI50

* O=C([O][Hg][CH2]C1OCCOC1[CH2][Hg][O]C(=O)c1ccccc1)c1ccccc1 (configuration not stated) | 5.13 µM
* C=C1C(=O)O[C@H]2[C@H]1CC/C(C=Nc1c(N)cc(C(F)(F)F)cc1C(F)(F)F)=C\CC[C@@]1(C)O[C@@H]21 | 1.87 µM
* CCCCCCn1c(-c2ccc(C(=O)O/N=C(\N)c3ccc4ccccc4c3)cc2)nc(-c2ccccc2)c1-c1ccccc1 | > 100 µM
* Cc1cc(O)cc(C)c1/C=C/c1cncc(C(N)=O)c1 | 2.3 µM
* N=C(N)SCc1c2ccccc2c(CSC(=N)N)c2ccccc12 | 10.6 µM
* Cn1nc(C(F)(F)F)cc1-c1c[nH]c(OCc2ccc(Cl)cc2)c(-c2ccc(Cl)c(C(F)(F)F)c2)c1=O | 1.07 µM
* COc1cc2c(cc1Cc1cccc(Cl)c1F)c(=O)c(C(=O)O)cn2[C@@H](CO)C(C)C | 6.63 µM
